Just for reference, patent US6747033B2 is where these values come from.

Tested on: Botrytis cinera
Assay: In vivo fungicidal activity, Pepper Botrytis (PB); also: ranges in brackets are in %
Details: 200 ppm spray
Measured PB disease control rating of individual entries

molecule	recordedMetric	assayResult
CC(N=c1c(-c2ccc(F)cc2F)c(Cl)nc2n(C)cnn12)C(F)(F)F (centres unmarked) [Example 16]	PB disease control rating	0 (0)
CC(N=c1c(-c2c(F)cccc2F)c(Cl)n(C)c2ncnn12)C(F)(F)F (centres unmarked) [Example 5]	PB disease control rating	1 (1-14)
CCn1cnn2c(=NC(C)C(F)(F)F)c(-c3c(F)cc(F)cc3F)c(Cl)nc12 (centres unmarked) [Example 10]	PB disease control rating	0 (0)
CC(N=c1c(-c2c(F)cccc2F)c(Cl)nc2n(C)cnn12)C(F)(F)F (centres unmarked) [Example 14]	PB disease control rating	0 (0)
CCn1c(Cl)c(-c2c(F)cc(F)cc2F)c(=NC(C)C(F)(F)F)n2ncnc12 (centres unmarked) [Example 3]	PB disease control rating	0 (0)
CCCn1cnn2c(=NC(C)C(F)(F)F)c(-c3c(F)cc(OC)cc3F)c(Cl)nc12 (centres unmarked) [Example 12]	PB disease control rating	0 (0)
CC(N=c1c(-c2ccccc2Cl)c(Cl)nc2n(C)cnn12)C(F)(F)F (centres unmarked) [Example 15]	PB disease control rating	2 (15-29)

Lab note: next molecule to report on.
In: Request the reported PB disease control rating associated with CCCn1cnn2c(=NC(C)C(F)(F)F)c(-c3c(F)cc(F)cc3F)c(Cl)nc12 (centres unmarked) [Example 11]
Out: 0 (0)
